test system: Bifidobacterium thermophilum; assay: Antimicrobial activity against Bifidobacterium thermophilum ATCC 25866; assay type: functional
Examples of compounds with documented MIC follow.
# value in µg/mL; strip the unit string

MIC of CC[C@H]1OC(=O)[C@H](C)[C@@H](O[C@H]2C[C@@](C)(OC)[C@@H](O)[C@H](C)O2)[C@H](C)[C@@H](O[C@@H]2O[C@H](C)C[C@H](N(C)C)[C@H]2O)[C@](C)(O)C[C@@H](C)C(=O)[C@H](C)[C@@H](O)[C@]1(C)O , assay on Bifidobacterium thermophilum, is 0.98

Reported MIC (Bifidobacterium thermophilum) for entry CN(C)[C@@H]1C(O)=C(C(N)=O)C(=O)[C@@]2(O)C(O)=C3C(=O)c4c(O)cccc4[C@@](C)(O)[C@H]3C[C@@H]12.Cl [TETRACYCLINE HYDROCHLORIDE] is 62.5

Known value: Bifidobacterium thermophilum MIC of the compound NC[C@@H]1O[C@H](O[C@H]2[C@@H](O)[C@H](O[C@@H]3[C@@H](O)[C@H](N)C[C@H](N)[C@H]3O[C@H]3O[C@H](CN)[C@@H](O)[C@H](O)[C@H]3N)O[C@@H]2CO)[C@H](N)[C@@H](O)[C@@H]1O equals 250

Entry Cc1onc(-c2ccccc2Cl)c1C(=O)N[C@@H]1C(=O)N2[C@@H]1SC(C)(C)[C@@H]2C(=O)O , tested on Bifidobacterium thermophilum, has a reported MIC of 15.6

Summary: CC1(C)S[C@@H]2[C@H](NC(=O)Cc3ccccc3)C(=O)N2[C@H]1C(=O)O , Bifidobacterium thermophilum, MIC = 0.98

Record CN[C@@H]1[C@H](O[C@H]2[C@H](O[C@H]3[C@H](O)[C@@H](O)[C@H](N=C(N)N)[C@@H](O)[C@@H]3N=C(N)N)O[C@@H](C)[C@]2(O)C=O)O[C@@H](CO)[C@H](O)[C@H]1O ; system Bifidobacterium thermophilum; MIC = 250

Lab entry: Bifidobacterium thermophilum assay, compound O=C(N[C@H](CO)[C@H](O)c1ccc([N+](=O)[O-])cc1)C(Cl)Cl , MIC = 7.8

MIC value, target or system Bifidobacterium thermophilum, for NC[C@@H]1O[C@H](O[C@H]2[C@@H](O)[C@H](O[C@@H]3[C@@H](O)[C@H](N)C[C@H](N)[C@H]3O[C@H]3O[C@H](CO)[C@@H](O)[C@H](O)[C@H]3N)O[C@@H]2CO)[C@H](N)[C@@H](O)[C@@H]1O : 250

For CC1(C)S[C@@H]2[C@H](NC(=O)[C@H](N)c3ccccc3)C(=O)N2[C@H]1C(=O)O on Bifidobacterium thermophilum, measured MIC was 0.98

----------
system: Bifidobacterium bifidum; experiment: Antimicrobial activity against 60 min 1 M HCl-stressed Bifidobacterium bifidum R0071 after 18 hrs; assay type: functional
# Lookup of reported MIC keyed by entry
Unit µg/mL implied. Number only.

1. CC1(C)S[C@@H]2[C@H](NC(=O)[C@H](N)c3ccccc3)C(=O)N2[C@H]1C(=O)O
0.98
2. Cc1onc(-c2ccccc2Cl)c1C(=O)N[C@@H]1C(=O)N2[C@@H]1SC(C)(C)[C@@H]2C(=O)O
15.6
3. CC[C@H]1OC(=O)[C@H](C)[C@@H](O[C@H]2C[C@@](C)(OC)[C@@H](O)[C@H](C)O2)[C@H](C)[C@@H](O[C@@H]2O[C@H](C)C[C@H](N(C)C)[C@H]2O)[C@](C)(O)C[C@@H](C)C(=O)[C@H](C)[C@@H](O)[C@]1(C)O
0.98
4. CN[C@@H]1[C@H](O[C@H]2[C@H](O[C@H]3[C@H](O)[C@@H](O)[C@H](N=C(N)N)[C@@H](O)[C@@H]3N=C(N)N)O[C@@H](C)[C@]2(O)C=O)O[C@@H](CO)[C@H](O)[C@H]1O
250
5. NC[C@@H]1O[C@H](O[C@H]2[C@@H](O)[C@H](O[C@@H]3[C@@H](O)[C@H](N)C[C@H](N)[C@H]3O[C@H]3O[C@H](CO)[C@@H](O)[C@H](O)[C@H]3N)O[C@@H]2CO)[C@H](N)[C@@H](O)[C@@H]1O
250
6. NC[C@@H]1O[C@H](O[C@H]2[C@@H](O)[C@H](O[C@@H]3[C@@H](O)[C@H](N)C[C@H](N)[C@H]3O[C@H]3O[C@H](CN)[C@@H](O)[C@H](O)[C@H]3N)O[C@@H]2CO)[C@H](N)[C@@H](O)[C@@H]1O
250

Could you now look at the following compound, please?
Kindly note the recorded MIC for O=C(N[C@H](CO)[C@H](O)c1ccc([N+](=O)[O-])cc1)C(Cl)Cl , which is 7.8

----------
test system: Bifidobacterium longum; assay: Antimicrobial activity against 90 mins oxgall-stressed Bifidobacterium longum ATCC 15708 after 18 hrs; assay type: functional
Let's look at some compounds and their measured MIC.
Form entry: value (µg/mL) — number only.

1. NC[C@@H]1O[C@H](O[C@H]2[C@@H](O)[C@H](O[C@@H]3[C@@H](O)[C@H](N)C[C@H](N)[C@H]3O[C@H]3O[C@H](CO)[C@@H](O)[C@H](O)[C@H]3N)O[C@@H]2CO)[C@H](N)[C@@H](O)[C@@H]1O
500
2. NC[C@@H]1O[C@H](O[C@H]2[C@@H](O)[C@H](O[C@@H]3[C@@H](O)[C@H](N)C[C@H](N)[C@H]3O[C@H]3O[C@H](CN)[C@@H](O)[C@H](O)[C@H]3N)O[C@@H]2CO)[C@H](N)[C@@H](O)[C@@H]1O
500
3. CC1(C)S[C@@H]2[C@H](NC(=O)Cc3ccccc3)C(=O)N2[C@H]1C(=O)O
0.98
4. NC[C@H]1O[C@H](O[C@H]2[C@H](O)[C@@H](O[C@H]3O[C@H](CO)[C@@H](O)[C@H](N)[C@H]3O)[C@H](N)C[C@@H]2N)[C@H](O)[C@@H](O)[C@@H]1O
500

Record CN[C@@H]1[C@H](O[C@H]2[C@H](O[C@H]3[C@H](O)[C@@H](O)[C@H](N=C(N)N)[C@@H](O)[C@@H]3N=C(N)N)O[C@@H](C)[C@]2(O)C=O)O[C@@H](CO)[C@H](O)[C@H]1O , field MIC: 250

----------
tested on: Bifidobacterium thermophilum; test: Antimicrobial activity against 60 min 1 M HCl-stressed Bifidobacterium thermophilum ATCC 25866 after 18 hrs; assay type: functional
Parameter: MIC (mg/L)
The reply should contain only the number, in mg/L.

Below, each entry is followed by its recorded MIC result.
1) Cc1onc(-c2ccccc2Cl)c1C(=O)N[C@@H]1C(=O)N2[C@@H]1SC(C)(C)[C@@H]2C(=O)O
31.2
2) CN[C@@H]1[C@H](O[C@H]2[C@H](O[C@H]3[C@H](O)[C@@H](O)[C@H](N=C(N)N)[C@@H](O)[C@@H]3N=C(N)N)O[C@@H](C)[C@]2(O)C=O)O[C@@H](CO)[C@H](O)[C@H]1O
250
3) CN(C)[C@@H]1C(O)=C(C(N)=O)C(=O)[C@@]2(O)C(O)=C3C(=O)c4c(O)cccc4[C@@](C)(O)[C@H]3C[C@@H]12.Cl [TETRACYCLINE HYDROCHLORIDE]
125
4) CC1(C)S[C@@H]2[C@H](NC(=O)[C@H](N)c3ccccc3)C(=O)N2[C@H]1C(=O)O
3.9
5) NC[C@H]1O[C@H](O[C@H]2[C@H](O)[C@@H](O[C@H]3O[C@H](CO)[C@@H](O)[C@H](N)[C@H]3O)[C@H](N)C[C@@H]2N)[C@H](O)[C@@H](O)[C@@H]1O
500

The recorded MIC for O=C(N[C@H](CO)[C@H](O)c1ccc([N+](=O)[O-])cc1)C(Cl)Cl is 3.9

Measured MIC of CC[C@H]1OC(=O)[C@H](C)[C@@H](O[C@H]2C[C@@](C)(OC)[C@@H](O)[C@H](C)O2)[C@H](C)[C@@H](O[C@@H]2O[C@H](C)C[C@H](N(C)C)[C@H]2O)[C@](C)(O)C[C@@H](C)C(=O)[C@H](C)[C@@H](O)[C@]1(C)O : 0.98

Kindly note the recorded MIC for CC1(C)S[C@@H]2[C@H](NC(=O)Cc3ccccc3)C(=O)N2[C@H]1C(=O)O , which is 0.98

----------
Measured MIC, listed per entry.
system: Bifidobacterium bifidum; assay: Antimicrobial activity against Bifidobacterium bifidum BB12; format: functional

Recorded MIC, per entry:
1) CN[C@@H]1[C@H](O[C@H]2[C@H](O[C@H]3[C@H](O)[C@@H](O)[C@H](N=C(N)N)[C@@H](O)[C@@H]3N=C(N)N)O[C@@H](C)[C@]2(O)C=O)O[C@@H](CO)[C@H](O)[C@H]1O [STREPTOMYCIN]
250 µg/mL
2) CN(C)[C@@H]1C(O)=C(C(N)=O)C(=O)[C@@]2(O)C(O)=C3C(=O)c4c(O)cccc4[C@@](C)(O)[C@H]3C[C@@H]12.Cl [TETRACYCLINE HYDROCHLORIDE]
15.6 µg/mL
3) CN[C@H](CC(C)C)C(=O)N[C@H]1C(=O)N[C@@H](CC(N)=O)C(=O)N[C@H]2C(=O)N[C@H]3C(=O)N[C@H](C(=O)N[C@H](C(=O)O)c4cc(O)cc(O)c4-c4cc3ccc4O)[C@H](O)c3ccc(c(Cl)c3)Oc3cc2cc(c3O[C@@H]2O[C@H](CO)[C@@H](O)[C@H](O)[C@H]2O[C@H]2C[C@](C)(N)[C@H](O)[C@H](C)O2)Oc2ccc(cc2Cl)[C@H]1O [VANCOMYCIN]
> 500 µg/mL
4) Cc1onc(-c2ccccc2Cl)c1C(=O)N[C@@H]1C(=O)N2[C@@H]1SC(C)(C)[C@@H]2C(=O)O [CLOXACILLIN]
0.98 µg/mL
5) NC[C@@H]1O[C@H](O[C@H]2[C@@H](O)[C@H](O[C@@H]3[C@@H](O)[C@H](N)C[C@H](N)[C@H]3O[C@H]3O[C@H](CO)[C@@H](O)[C@H](O)[C@H]3N)O[C@@H]2CO)[C@H](N)[C@@H](O)[C@@H]1O [PAROMOMYCIN]
250 µg/mL

Bifidobacterium bifidum assay, compound NC[C@H]1O[C@H](O[C@H]2[C@H](O)[C@@H](O[C@H]3O[C@H](CO)[C@@H](O)[C@H](N)[C@H]3O)[C@H](N)C[C@@H]2N)[C@H](O)[C@@H](O)[C@@H]1O [KANAMYCIN] , recorded MIC = > 500 µg/mL

Bench note, Bifidobacterium bifidum: entry CC[C@H]1OC(=O)[C@H](C)[C@@H](O[C@H]2C[C@@](C)(OC)[C@@H](O)[C@H](C)O2)[C@H](C)[C@@H](O[C@@H]2O[C@H](C)C[C@H](N(C)C)[C@H]2O)[C@](C)(O)C[C@@H](C)C(=O)[C@H](C)[C@@H](O)[C@]1(C)O [ERYTHROMYCIN] , its MIC = 15.6 µg/mL

MIC for Bifidobacterium bifidum with input O=C(N[C@H](CO)[C@H](O)c1ccc([N+](=O)[O-])cc1)C(Cl)Cl [CHLORAMPHENICOL] equals 1.9 µg/mL
